Provenance of the data: PubChem BioAssay AID950

Below, each entry is listed with its recorded inhibition.
Target: Apoptosis regulator Bcl-2 (Homo sapiens)
Assay: inhibitors of Bim-Bcl-2 binding, primary screen, biochemical, multiplexed, human Bcl-2 family (AID 950);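 also: 0% = no compound wells with probe peptide and 100% = reference peptide inhibitor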
Conditions: Bead-based flow cytometry, Bim peptide-Bcl-2 binding; at 10 µM; hits give high values
The whole screen tested about 190,000 compounds, of which about 120 (0.063%) were called active. For the sample, actives were picked, then their nearest neighbours and some compounds at random.
observed_property: inhibition (%)

INSERT INTO results (compound, assay_system, observed_property, unit_name, readout_number) VALUES
  ('COC(=O)Cc1ccc(OCC(=O)Nc2ccc(OC(F)(F)F)cc2)cc1', 'Apoptosis regulator Bcl-2 (Homo sapiens)', 'inhibition', '%', -5),
  ('COc1ccc(CN2CN(C3CCCC3)CSC2=S)cc1', 'Apoptosis regulator Bcl-2 (Homo sapiens)', 'inhibition', '%', -4),
  ('Cc1ccc(NC(=O)CCC(=O)N/N=C/c2ccco2)c(C)c1', 'Apoptosis regulator Bcl-2 (Homo sapiens)', 'inhibition', '%', -6),
  ('CSCc1cc(N2CCOCC2)nc(SCc2ccc(Cl)cc2Cl)n1', 'Apoptosis regulator Bcl-2 (Homo sapiens)', 'inhibition', '%', -12),
  ('Cc1ccc(NC(=S)NC(=O)/C=C/c2ccc(Cl)cc2)cc1', 'Apoptosis regulator Bcl-2 (Homo sapiens)', 'inhibition', '%', -10),
  ('Cc1cc(C)c(C2C3=C(Nc4c2c(C)nn4-c2ccccn2)c2ccccc2C3=O)c(C)c1 (configuration not stated)', 'Apoptosis regulator Bcl-2 (Homo sapiens)', 'inhibition', '%', -2),
  ('CC(=O)c1cc(C#N)c(N2CC(C)OC(C)C2)nc1C (configuration not stated)', 'Apoptosis regulator Bcl-2 (Homo sapiens)', 'inhibition', '%', -4),
  ('C/C(=N\NC(=S)NC(C)C)c1ccc(C(C)(C)C)cc1', 'Apoptosis regulator Bcl-2 (Homo sapiens)', 'inhibition', '%', -4),
  ('CCC1CCCCN1S(=O)(=O)Cc1ccccc1Cl (configuration not stated)', 'Apoptosis regulator Bcl-2 (Homo sapiens)', 'inhibition', '%', 1),
  ('CC1COc2ccccc2N1S(=O)(=O)c1ccccc1 (configuration not stated)', 'Apoptosis regulator Bcl-2 (Homo sapiens)', 'inhibition', '%', -1),
  ('CC1(C)OC(=O)C(=CSc2ccc(C(C)(C)C)cc2)C(=O)O1', 'Apoptosis regulator Bcl-2 (Homo sapiens)', 'inhibition', '%', -3),
  ('CN(C)c1ccc(/C=N\S(=O)(=O)c2ccccc2)cc1', 'Apoptosis regulator Bcl-2 (Homo sapiens)', 'inhibition', '%', 2),
  ('O=C(CC(=O)N/N=C\c1cccc(Cl)c1Cl)NCc1ccccc1', 'Apoptosis regulator Bcl-2 (Homo sapiens)', 'inhibition', '%', -2),
  ('CC1(C)C(c2cccs2)=[N+]([O-])C2(CCCCC2=O)N1O (configuration not stated)', 'Apoptosis regulator Bcl-2 (Homo sapiens)', 'inhibition', '%', -5),
  ('O=C(O)CS/C(=C\c1ccc(F)cc1)c1nc2ccccc2s1', 'Apoptosis regulator Bcl-2 (Homo sapiens)', 'inhibition', '%', 7),
  ('CCOC(=O)c1sc(NC(=O)CSc2nc(O)c(Cc3ccccc3)c(=O)[nH]2)nc1C', 'Apoptosis regulator Bcl-2 (Homo sapiens)', 'inhibition', '%', 0),
  ('O=C(COC(=O)Cn1cnc2ccccc21)Nc1cccc2c1C(=O)c1ccccc1C2=O', 'Apoptosis regulator Bcl-2 (Homo sapiens)', 'inhibition', '%', -1),
  ('C#CCOCCOCCOCCNc1nc(N2CCN(C(=O)[C@H](C(C)C)n3cc(CCO)nn3)CC2)nc(N2CCN(C(=O)[C@H](C(C)C)n3cc(CCO)nn3)CC2)n1', 'Apoptosis regulator Bcl-2 (Homo sapiens)', 'inhibition', '%', -3),
  ('Cn1cc(Cl)c(C(=O)NNC(=S)Nc2cccc(Cl)c2)n1', 'Apoptosis regulator Bcl-2 (Homo sapiens)', 'inhibition', '%', 0),
  ('O=C(c1ccc(N2CCOCC2)c([N+](=O)[O-])c1)N1CCN(S(=O)(=O)c2cccs2)CC1', 'Apoptosis regulator Bcl-2 (Homo sapiens)', 'inhibition', '%', 0),
  ('CCO[C@@H]1OC(C(=O)NCc2nc3ccccc3[nH]2)=C[C@H](C2CCCCC2)[C@H]1CCCO', 'Apoptosis regulator Bcl-2 (Homo sapiens)', 'inhibition', '%', -2),
  ('CCOC(=O)C1CCCN(C(=O)/C=C/c2ccc(OC)cc2)C1 (configuration not stated)', 'Apoptosis regulator Bcl-2 (Homo sapiens)', 'inhibition', '%', -3);

----------
Reported values of inhibition for individual entries
Molecular target: Apoptosis regulator Bcl-2 (Homo sapiens)
Assay: inhibitors of Bim-Bcl-2 binding, primary screen, biochemical, multiplexed, human Bcl-2 family (AID 950);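 also: 0% = no compound wells with probe peptide and 100% = reference peptide inhibitor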
Conditions: Bead-based flow cytometry, Bim peptide-Bcl-2 binding; at 10 µM; hits give high values
Screen size: about 190,000 compounds; about 120 (0.063%) were called active. Only a selection was taken, and actives are over-represented in it overall.
observed_property: inhibition (%)

INSERT INTO results (compound, observed_property, readout_number) VALUES
  ('CCCCCNC(=O)c1cccnc1SCC(=O)Nc1ccccc1OC', 'inhibition', -2),
  ('Fc1cccc(Cc2noc(CN3CCN(c4cnccn4)CC3)n2)c1', 'inhibition', 0),
  ('CS(=O)(=O)N(Cc1ccccc1Cl)c1ccc(C(=O)NCc2cccnc2)cc1', 'inhibition', -4),
  ('COC(=O)c1ccc(-n2cnc3ccccc32)nc1', 'inhibition', -4),
  ('CC(=O)N1CC(C)c2scc(C)[n+]2-c2ccccc21 (stereo unspecified)', 'inhibition', 2),
  ('CC(=O)Nc1ccc(OC(=O)COc2ccc(Br)cc2)cc1', 'inhibition', 0),
  ('COc1cc2nc(CN(C)Cc3ccc(F)cc3)[nH]c(=O)c2cc1OC', 'inhibition', 14),
  ('O=C(COc1ccc(Cl)cc1)NCc1nnc(SCC(=O)NCC2CCCO2)o1 (stereo unspecified)', 'inhibition', -2),
  ('O=C(CNCc1ccco1)Nc1cc(S(=O)(=O)N2CCOCC2)ccc1N1CCCC1', 'inhibition', -2),
  ('Oc1ccc(/C=N/N(Cc2ccccc2)c2ccccc2)cc1', 'inhibition', -9),
  ('COCCCNCCOCCOc1ccc(Cl)cc1Br', 'inhibition', 1);

----------
Target: Apoptosis regulator Bcl-2 (Homo sapiens)
Experiment: inhibitors of Bim-Bcl-2 binding, primary screen, biochemical, multiplexed, human Bcl-2 family (AID 950);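 also: 0% = no compound wells with probe peptide and 100% = reference peptide inhibitor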
Conditions: Bead-based flow cytometry, Bim peptide-Bcl-2 binding; at 10 µM; hits give high values
The campaign covered roughly 190,000 compounds. About 120 (0.063%) were called active. Shown is part of a subset that was picked to be rich in actives.
Parameter inhibition: see the listing below.
observed_property: inhibition (%)

INSERT INTO measurements (compound, assay_system, readout_number) VALUES
  ('O=C(c1ccc(Br)o1)N(c1ccccn1)C1CCCCC1', 'Apoptosis regulator Bcl-2 (Homo sapiens)', -16),
  ('CCCc1cc(=O)[nH]c(SCc2cc(=O)oc3c(C)c(C)ccc23)n1', 'Apoptosis regulator Bcl-2 (Homo sapiens)', -3),
  ('CN(NC(=O)C1CC(=O)N(c2ccccc2)C1)C1=NS(=O)(=O)c2ccccc21 (stereo not given)', 'Apoptosis regulator Bcl-2 (Homo sapiens)', -2),
  ('CCOC(=O)C1CCN(C(=O)C2(NC(=O)Nc3cccc(F)c3)CCCCC2)CC1', 'Apoptosis regulator Bcl-2 (Homo sapiens)', -2),
  ('CCCC1(C(=O)OC)NC(c2ccco2)C2C(=O)N(C)C(=O)C21 (stereo not given)', 'Apoptosis regulator Bcl-2 (Homo sapiens)', -2),
  ('CCC(NC(=O)c1ccccc1NC(=O)c1ccccc1)C(=O)NNC(=O)CSc1nc2ccccc2o1 (stereo not given)', 'Apoptosis regulator Bcl-2 (Homo sapiens)', -6),
  ('CCCn1c(C)cc(/C=C(\C#N)C(=O)OCC(=O)Nc2cc(OC)c(OC)c(OC)c2)c1C', 'Apoptosis regulator Bcl-2 (Homo sapiens)', -6),
  ('Cc1ccc(Cl)cc1NC(=S)N(CCN(C)C)Cc1cccs1', 'Apoptosis regulator Bcl-2 (Homo sapiens)', -4),
  ('Cc1ccc(-c2nc(C#N)c(NCCCn3ccnc3)o2)cc1', 'Apoptosis regulator Bcl-2 (Homo sapiens)', -2),
  ('CN(C)CCOCCOc1ccc(Cl)c2ccccc12', 'Apoptosis regulator Bcl-2 (Homo sapiens)', -7),
  ('CCOc1ccc(NC(=O)CC2C(=O)N(c3ccccc3)C(=O)N2CCOC)cc1 (stereo not given)', 'Apoptosis regulator Bcl-2 (Homo sapiens)', 1),
  ('CCOc1cc(/C=C2/C(=N)N3OC(C)=CC3=NC2=O)ccc1OC', 'Apoptosis regulator Bcl-2 (Homo sapiens)', 2),
  ('CC(Sc1nnnn1C1CCCCC1)C(=O)O (stereo not given)', 'Apoptosis regulator Bcl-2 (Homo sapiens)', -2),
  ('O=C(NCc1ccncc1)C(=O)NCc1ccco1', 'Apoptosis regulator Bcl-2 (Homo sapiens)', -1),
  ('Cc1cc(Cl)c(S(=O)(=O)Nc2ccc3c(c2)OCCO3)cc1OCC(N)=O', 'Apoptosis regulator Bcl-2 (Homo sapiens)', -1),
  ('O=C(NN1C(=O)C2C3C=CC(C3)C2C1=O)c1ccco1 (stereo not given)', 'Apoptosis regulator Bcl-2 (Homo sapiens)', -4),
  ('CCOc1ccccc1/C=N/NC(=O)CNC(=O)COc1ccccc1', 'Apoptosis regulator Bcl-2 (Homo sapiens)', 79),
  ('CNC(=O)c1[nH]cnc1C(=O)N[C@@H](CC(C)C)C(=O)OCc1ccccc1', 'Apoptosis regulator Bcl-2 (Homo sapiens)', -3),
  ('CN(c1ccccc1)c1nc(N)c([N+](=O)[O-])c(NCc2ccco2)n1', 'Apoptosis regulator Bcl-2 (Homo sapiens)', -2),
  ('COC(=O)C1=C(C)N(C)C(=S)NC1c1cc(OC)ccc1OC (stereo not given)', 'Apoptosis regulator Bcl-2 (Homo sapiens)', -5),
  ('Cc1ccc(NC(=O)N2CCSc3ccccc32)cc1', 'Apoptosis regulator Bcl-2 (Homo sapiens)', -1),
  ('CC(CC(=O)C1C(C)C=CCC1(C)C)NNC(N)=O (stereo not given)', 'Apoptosis regulator Bcl-2 (Homo sapiens)', -3),
  ('CCCN(CCC)c1ccc(C(O)c2nnc(-c3ccccc3)o2)cc1 (stereo not given)', 'Apoptosis regulator Bcl-2 (Homo sapiens)', -5),
  ('COc1ccc(C(=O)C[n+]2ccc(N)c(C)c2C)cc1', 'Apoptosis regulator Bcl-2 (Homo sapiens)', -1),
  ('O=C(NCC1CCCO1)/C(=C/c1ccc(Cl)cc1)NC(=O)c1ccccc1 (stereo not given)', 'Apoptosis regulator Bcl-2 (Homo sapiens)', -5),
  ('C=C1C2C[C@H](O)C(C)(C)[C@@]2(O)[C@H](O)C[C@]23C[C@@](C)(O)[C@H](CC[C@H]12)[C@H]3O (stereo not given in full)', 'Apoptosis regulator Bcl-2 (Homo sapiens)', 0),
  ('CCN1CCc2nc(NC(=O)c3cc(F)c(F)cc3Cl)sc2C1', 'Apoptosis regulator Bcl-2 (Homo sapiens)', -5),
  ('CCOc1ccc(-c2ccc(SCC(=O)N3CCOCC3)nn2)cc1', 'Apoptosis regulator Bcl-2 (Homo sapiens)', -3),
  ('CN1CCN(CC(=O)Nc2cccc([N+](=O)[O-])c2)CC1', 'Apoptosis regulator Bcl-2 (Homo sapiens)', -1),
  ('Cc1ccc(/C=N/NC(=O)CNC(=O)COc2ccccc2)o1', 'Apoptosis regulator Bcl-2 (Homo sapiens)', -10),
  ('CC(O)c1nc2ccccc2n1Cc1ccc([N+](=O)[O-])cc1 (stereo not given)', 'Apoptosis regulator Bcl-2 (Homo sapiens)', -5),
  ('O=C(CSc1ccc(C(F)(F)F)cc1[N+](=O)[O-])NCCOc1ccccc1', 'Apoptosis regulator Bcl-2 (Homo sapiens)', -7),
  ('CCOC(=O)COc1ccc([N+](=O)[O-])cc1', 'Apoptosis regulator Bcl-2 (Homo sapiens)', -1),
  ('COc1ccc(N(CC(=O)Nc2ccc(C)cc2C)S(=O)(=O)c2ccccc2[N+](=O)[O-])c(OC)c1', 'Apoptosis regulator Bcl-2 (Homo sapiens)', -1),
  ('O=C(CN1CCN(c2ncccn2)CC1)Nc1ccccc1C(F)(F)F', 'Apoptosis regulator Bcl-2 (Homo sapiens)', -2),
  ('COc1ccc(N2CCN(C(=S)Nc3ccc(S(N)(=O)=O)cc3)CC2)cc1', 'Apoptosis regulator Bcl-2 (Homo sapiens)', -3),
  ('Cc1nnc(N/N=C/C2CC=CCC2)[nH]c1=O (stereo not given)', 'Apoptosis regulator Bcl-2 (Homo sapiens)', 2),
  ('COc1ccc(C[C@H]2CN3C(=NC[C@H]3C)N2CCNC(=O)CCC2CCCCC2)cc1', 'Apoptosis regulator Bcl-2 (Homo sapiens)', 0),
  ('Cc1ccc(C(NC(=O)N2CCCC2)C(Cl)(Cl)Cl)cc1F (stereo not given)', 'Apoptosis regulator Bcl-2 (Homo sapiens)', -1),
  ('CCOc1ccc(NC(=S)N2CCCCCC2)cc1', 'Apoptosis regulator Bcl-2 (Homo sapiens)', -6),
  ('Cc1cc(C)cc(N(CC(=O)NCCSCc2ccco2)S(C)(=O)=O)c1', 'Apoptosis regulator Bcl-2 (Homo sapiens)', -7),
  ('COCCN(C(=S)Nc1ccccc1OC)C1CCN(C(C)C)CC1', 'Apoptosis regulator Bcl-2 (Homo sapiens)', -1),
  ('CCOC(=O)CNC(=O)/C=C/c1c(Cl)cccc1Cl', 'Apoptosis regulator Bcl-2 (Homo sapiens)', 4),
  ('O=C(CC1CCCCC1)NCc1ccco1', 'Apoptosis regulator Bcl-2 (Homo sapiens)', -4),
  ('COc1cccc(NC(=O)COC(=O)CCOc2ccccc2OC)c1', 'Apoptosis regulator Bcl-2 (Homo sapiens)', -2);
